assayed_target: HLA-A*03:01
run_description: IEDB peptide-MHC binding, purified MHC/competitive/radioactivity; filed as Kd, often an IC50 or EC50 that approximates it; bounds were set here for any values at or beyond the usual limits of such assays
condition_notes: source organism: Vaccinia virus WR
With a cut-off of 600 nM, any Kd strictly below it is called criterion met; any Kd meeting it or above is called criterion not met.

VIVVPVIDR = criterion not met
NLEMIDERK = criterion not met
HLRVLFSIFY = criterion met

stdin: Regarding `LLNSMMNRDK` , kindly confirm whether its Kd is beneath 600 nM.
stdout: criterion met

stdin: Regarding `DVKVLAARLK` , kindly confirm whether its Kd is beneath 600 nM.
stdout: criterion not met

====

assayed_target: HLA-A*26:01
run_description: IEDB peptide-MHC binding, purified MHC/competitive/fluorescence; filed as Kd, often an IC50 or EC50 that approximates it; bounds were set here for any values at or beyond the usual limits of such assays
condition_notes: source organism: Bacillus anthracis str. A2012
pKd: −log10 of the molar value.
measurement_label: pKd

stdin: Requested read-out: pKd. Entry: `IVIAPAMGM`
stdout: ≤ 4.70

====

assayed_target: HLA-B*54:01
run_description: IEDB peptide-MHC binding, purified MHC/competitive/radioactivity; filed as Kd, often an IC50 or EC50 that approximates it; bounds were set here for any values at or beyond the usual limits of such assays
condition_notes: source organism: SARS coronavirus Tor2
measurement_label: pKd
Give bare numbers, as −log10 of the molar value.

VPMEKLKAL = 4.93
GPQSNQRSA = 5.23

stdin: Requested read-out: pKd. Entry: `LPFHRWHTMV`
stdout: 7.55

====

Please respond with reported Kd for every item in the list.
assayed_target: HLA-A*31:01
run_description: IEDB peptide-MHC binding, purified MHC/competitive/radioactivity; filed as Kd, often an IC50 or EC50 that approximates it; bounds were set here for any values at or beyond the usual limits of such assays
condition_notes: source organism: Vaccinia virus WR
Answers are plain numbers, in µM.

Some sequences with recorded Kd:
RIRQQLPLY = 0.773
CTDPSERVFK = 2.93
SAVFKDSFLR = 0.0239
VMANNVKKK = 3.91
FSCGLSLQDY = 2.31
NIADAARHY = 5.04

Could you tell me Kd for each of these sequences? They are listed below.
1. SIYSRPKIK
2. PISELSRLR
3. CFKEASFSK

stdout:
[4.89, 0.484, 0.013]

Could you tell me Kd for each of these sequences? They are listed below.
1. VIVVPVIDR
2. NAISSRVDRY
3. LIMFEQYFIY
4. VSIILANERY
5. NLEMIDERK
6. LMYDIINSV
7. IAARILSEK

stdout:
1: 9.91; 2: 11; 3: 14; 4: 8.59; 5: 9.46; 6: 4.52; 7: 4.55

Could you tell me Kd for each of these sequences? They are listed below.
1. HLRVLFSIFY
2. ALKKLIIDR

stdout:
[1.01, 0.00601]

====

assayed_target: HLA-A*26:01
run_description: IEDB peptide-MHC binding, purified MHC/competitive/radioactivity; filed as Kd, often an IC50 or EC50 that approximates it; bounds were set here for any values at or beyond the usual limits of such assays
condition_notes: source organism: SARS coronavirus Tor2
measurement_label: pKd
Give bare numbers, as −log10 of the molar value.

Some sequences with recorded pKd:
HTLSIHDGY = 7.80
TPSGTWLTY = 4.73
EFSSNVANY = 5.54

Could you tell me pKd for each of these sequences? They are listed below.
1. TVATSRTLSY
2. AMVRMYIFF
3. CTFLLNKEMY
4. STGNYNYKY

stdout:
7.11
5.13
5.03
4.81
